target: Tyrosine-protein kinase Fer (Homo sapiens) (UniProt P16591); conditions: at 10 µM
Sequence (P16591 whole entry, looked up): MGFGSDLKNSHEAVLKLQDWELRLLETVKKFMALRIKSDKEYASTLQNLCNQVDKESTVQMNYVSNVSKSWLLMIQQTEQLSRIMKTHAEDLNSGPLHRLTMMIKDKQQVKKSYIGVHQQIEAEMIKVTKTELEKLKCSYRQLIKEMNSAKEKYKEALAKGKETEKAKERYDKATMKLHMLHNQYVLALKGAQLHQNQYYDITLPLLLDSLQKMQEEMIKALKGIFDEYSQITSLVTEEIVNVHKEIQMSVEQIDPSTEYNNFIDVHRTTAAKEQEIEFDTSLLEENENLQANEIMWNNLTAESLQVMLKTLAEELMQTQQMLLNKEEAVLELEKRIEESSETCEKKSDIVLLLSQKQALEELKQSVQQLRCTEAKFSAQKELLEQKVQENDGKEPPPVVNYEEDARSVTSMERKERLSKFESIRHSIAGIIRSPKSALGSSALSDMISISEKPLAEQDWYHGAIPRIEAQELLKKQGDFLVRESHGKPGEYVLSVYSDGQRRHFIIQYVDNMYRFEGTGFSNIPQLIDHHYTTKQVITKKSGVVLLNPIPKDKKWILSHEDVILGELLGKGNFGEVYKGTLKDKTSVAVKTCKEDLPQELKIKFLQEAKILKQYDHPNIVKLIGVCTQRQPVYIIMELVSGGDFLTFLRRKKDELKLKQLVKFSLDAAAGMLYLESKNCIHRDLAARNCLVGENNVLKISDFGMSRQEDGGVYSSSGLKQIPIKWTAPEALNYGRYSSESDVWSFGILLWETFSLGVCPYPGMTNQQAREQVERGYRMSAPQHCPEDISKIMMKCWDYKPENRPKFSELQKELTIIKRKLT

[
  {
    "smilesNotation": "Cn1cnc2cc3c(Nc4cccc(Br)c4)ncnc3cc21",
    "assaySystem": "Tyrosine-protein kinase Fer (Homo sapiens) (UniProt P16591)",
    "unitOfMeasure": "%",
    "residual activity": 93
  },
  {
    "smilesNotation": "N#C/C(=C(\\N)Sc1ccc(N)cc1)c1ccccc1C(F)(F)F",
    "assaySystem": "Tyrosine-protein kinase Fer (Homo sapiens) (UniProt P16591)",
    "unitOfMeasure": "%",
    "residual activity": 79
  },
  {
    "smilesNotation": "COc1cc2ncnc(Nc3ccc(Oc4ccccc4)cc3)c2cc1OC",
    "assaySystem": "Tyrosine-protein kinase Fer (Homo sapiens) (UniProt P16591)",
    "unitOfMeasure": "%",
    "residual activity": 76
  }
]
